Measured values drawn from patent US20240199727A1 for this set.

molecular target: T1, canine NGF tagged at the C-terminus with the Flag tag (canine, UniProt A0A8I3PYI3 122-241); experiment: SPR competition; Ab pre-incubated with 10 nM NGF at Ab to NGF ratio 50 to 1, injected over captured feline TrkA (competitor)
T1 construct: mature; also called feline NGF (processed form identical)
T1 sequence (A0A8I3PYI3 entry or part of it): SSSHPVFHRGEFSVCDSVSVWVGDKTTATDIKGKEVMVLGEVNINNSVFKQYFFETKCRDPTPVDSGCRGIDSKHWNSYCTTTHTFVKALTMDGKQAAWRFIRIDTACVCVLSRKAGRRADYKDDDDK
A collection of binders and their measured % Block

{"columns": ["binder", "value units", "% Block"],
 "data": [
  ["AHF17602 (antibody, V domains shown) VH: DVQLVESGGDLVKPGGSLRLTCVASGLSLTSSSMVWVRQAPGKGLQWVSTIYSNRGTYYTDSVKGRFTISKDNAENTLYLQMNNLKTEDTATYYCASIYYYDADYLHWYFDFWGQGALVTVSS VL: EIQMTQSPTSLSASVGDRVTITCRASEGIANNLSWYQQTPGKAPKLLIYATSNLHSGVPSRFSGSGSGTDFTLTISSLQPEDFATYYCQQGYKWPLTFGGGTKLEIT", "%", 100],
  ["SC-184_76-Arg (antibody, V domains shown) VH: DVQLVESGGDLVKPGGSLRLTCVASGLSLTSDSMSWVRQAPGKGLQWVSTLWSNRGTYYTDSVKGRFTISKDNAENTLYLQMNNLKTEDTATYYCASIYYYEADYLHWYFDFWGQGALVTVSS VL: EIQMTQSPTSLSASVGDRVTITCRASEGIANNLSWYQQTPGKAPKLLIYATSNLHSGVPSRFSGSGSGTDFTLTISSLQPEDFATYYCQQGFKWPLTFGGGTKLEIT", "%", 100],
  ["felinized clone 101 (antibody, V domains shown) VH: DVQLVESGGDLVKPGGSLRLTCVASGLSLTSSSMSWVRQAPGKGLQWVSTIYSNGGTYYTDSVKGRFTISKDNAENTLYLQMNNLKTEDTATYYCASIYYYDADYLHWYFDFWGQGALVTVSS VL: EIQMTQSPTSLSASVGDRVTITCRASEGISNNLSWYQQTPGKAPKLLIYATSNLHSGVPSRFSGSGSGTDFTLTISSLQPEDFATYYCQQGYKWPLTFGGGTKLEIT", "%", 76],
  ["SC-184_110-Arg (antibody, V domains shown) VH: DVQLVESGGDLVKPGGSLRLTCVASGLSLTSASMSWVRQAPGKGLQWVSTIYSNRGTYYTDSVKGRFTISKDNAENTLYLQMNNLKTEDTATYYCASIYYYEAEYLHWYFDFWGQGALVTVSS VL: EIQMTQSPTSLSASVGDRVTITCRASEGISKNLSWYQQTPGKAPKLLIYATDNLHSGVPSRFSGSGSGTDFTLTISSLQPEDFATYYCQQGWKWPLTFGGGTKLEIT", "%", 100]
]}
